Please provide measured hSTING Tm Shift WT for the entries that follow.
experimentalSystem: hSTING(WT) (Homo sapiens, UniProt Q86WV6, H232R)
Sequence (Q86WV6 140-379 H232R): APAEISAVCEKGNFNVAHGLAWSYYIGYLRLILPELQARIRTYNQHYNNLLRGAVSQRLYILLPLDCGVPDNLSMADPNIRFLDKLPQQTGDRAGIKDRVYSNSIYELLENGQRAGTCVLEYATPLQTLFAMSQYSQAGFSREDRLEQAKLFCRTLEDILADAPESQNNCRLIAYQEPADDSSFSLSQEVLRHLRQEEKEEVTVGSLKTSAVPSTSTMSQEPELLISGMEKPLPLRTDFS
testSummary: Differential scanning fluorometry (DSF) binding to purified hSTING WT
Design: DNA encoding amino acids 140-379 (amino acid numbering corresponding to Swiss Prot Q86WV6); 6xHIS (N, cleaved yes); SUMO (N, cleaved yes); made in house; host or cells: Rosetta2 (DE3) E. coli
protocolConditions: DSF, 1 mg/ml STING AA140-379, ligand 1 mM
Please answer in the form of a number followed by its unit of measurement.

Entry Nc1nc2c(ncn2[C@@H]2O[C@@H]3CO[P@@](=O)(S)O[C@H]4[C@@H](F)[C@H](n5cnc6c(N)ncnc65)O[C@@H]4CO[P@@](=O)(S)O[C@H]3[C@H]2O)c(=O)[nH]1 has what hSTING Tm Shift WT?
15.9 °C

And then CC(C)C(=O)Nc1nc2c(ncn2[C@@H]2O[C@@H]3CO[P@@](=O)(S)O[C@H]4[C@@H](F)[C@H](n5cnc6c(NC(=O)c7ccccc7)ncnc65)O[C@@H]4CO[P@@](=O)(S)O[C@H]3[C@H]2F)c(=O)[nH]1 , what is it?
10.6 °C

And then Nc1ncnc2c1ncn2[C@@H]1O[C@@H]2CO[P@](=O)(S)O[C@H]3[C@@H](F)[C@H](n4cnc5c(N)ncnc54)O[C@@H]3CO[P@@](=O)(S)O[C@H]2[C@H]1O [Compound 22a] , what is it?
6.4 °C

And then Nc1nc2c(ncn2[C@@H]2O[C@@H]3CO[P@@](=O)(S)O[C@H]4[C@@H](O)[C@H](n5cnc6c(N)ncnc65)O[C@@H]4CO[P@](=O)(S)O[C@H]3[C@H]2F)c(=O)[nH]1 [Compound 23a] , what is it?
10.6 °C

And then Nc1nc2c(ncn2[C@@H]2O[C@@H]3CO[P@@](=O)(S)O[C@H]4[C@@H](O)[C@H](n5cnc6c(N)ncnc65)O[C@@H]4CO[P@@](=O)(S)O[C@H]3[C@H]2F)c(=O)[nH]1 , what is it?
14.7 °C

And then Nc1nc2c(ncn2[C@@H]2O[C@@H]3CO[P@@](=O)(S)O[C@H]4[C@@H](O)[C@H](n5cnc6c(=O)[nH]c(N)nc65)O[C@@H]4CO[P@@](=O)(S)O[C@H]3[C@H]2O)c(=O)[nH]1 [3'3'-RR-(G)(G), reference compound] , what is it?
9.5 °C

And then Nc1nc2c(ncn2[C@@H]2O[C@@H]3CO[P@@](=O)(S)O[C@H]4[C@@H](F)[C@H](n5cnc6c(N)ncnc65)O[C@@H]4CO[P@@](=O)(S)O[C@H]3[C@H]2F)c(=O)[nH]1 , what is it?
19.3 °C

And then Nc1nc2c(ncn2[C@@H]2O[C@@H]3CO[P@@](=O)(S)O[C@H]4[C@@H](O)[C@H](n5cnc6c(N)ncnc65)O[C@@H]4CO[P@@](=O)(S)O[C@H]3[C@H]2O)c(=O)[nH]1 [3'3'-RR-(G)(A), reference compound] , what is it?
11.1 °C

And then Nc1ncnc2c1ncn2[C@@H]1O[C@@H]2CO[P@@](=O)(S)O[C@H]3[C@@H](O)[C@H](n4cnc5c(N)ncnc54)O[C@@H]3CO[P@@](=O)(S)O[C@H]2[C@H]1O [3'3'-RR-(A)(A), reference compound] , what is it?
9.6 °C

And then Nc1nc2c(ncn2[C@@H]2O[C@@H]3CO[P@](=O)(S)O[C@H]4[C@@H](F)[C@H](n5cnc6c(N)ncnc65)O[C@@H]4CO[P@@](=O)(S)O[C@H]3[C@H]2O)c(=O)[nH]1 [Compound 24a] , what is it?
9.3 °C

And then CC(C)C(=O)Nc1nc2c(ncn2[C@@H]2O[C@@H]3CO[P@@](=O)(S)O[C@H]4[C@@H](F)[C@H](n5cnc6c(N)ncnc65)O[C@@H]4CO[P@@](=O)(S)O[C@H]3[C@H]2F)c(=O)[nH]1 , what is it?
13.3 °C

And then Nc1ncnc2c1ncn2[C@@H]1O[C@@H]2CO[P@@](=O)(S)O[C@H]3[C@@H](F)[C@H](n4cnc5c(N)ncnc54)O[C@@H]3CO[P@@](=O)(S)O[C@H]2[C@H]1O , what is it?
9.4 °C

And then Nc1ncnc2c1ncn2[C@@H]1O[C@@H]2CO[P@@](=O)(S)O[C@H]3[C@H](F)[C@H](n4cnc5c(N)ncnc54)O[C@@H]3CO[P@@](=O)(S)O[C@H]2[C@@H]1F , what is it?
3.1 °C

And then Nc1nc2c(ncn2[C@@H]2O[C@@H]3CO[P@@](=O)(S)O[C@H]4[C@@H](F)[C@H](n5cnc6c(=O)[nH]c(N)nc65)O[C@@H]4CO[P@@](=O)(S)O[C@H]3[C@H]2F)c(=O)[nH]1 , what is it?
12.6 °C

And then Nc1nc2c(ncn2[C@@H]2O[C@@H]3COP(=O)(O)O[C@H]4[C@@H](F)[C@H](n5cnc6c(N)ncnc65)O[C@@H]4COP(=O)(O)O[C@H]3[C@H]2F)c(=O)[nH]1 , what is it?
14.3 °C

And then Nc1nc2c(ncn2[C@@H]2O[C@@H]3COP(=O)(O)O[C@H]4[C@@H](O)[C@H](n5cnc6c(=O)[nH]c(N)nc65)O[C@@H]4COP(=O)(O)O[C@H]3[C@H]2O)c(=O)[nH]1 [3'3'-(G)(G), cyclic-[G(3′,5′)p-G(3′,5′)p], reference compound] , what is it?
6.1 °C

And then Nc1ncnc2c1ncn2[C@@H]1O[C@@H]2CO[P@@](=O)(S)O[C@H]3[C@@H](F)[C@H](n4cnc5c(N)ncnc54)O[C@@H]3CO[P@@](=O)(S)O[C@H]2[C@H]1F , what is it?
19.3 °C

And then Nc1ncnc2c1ncn2[C@@H]1O[C@@H]2COP(=O)(O)O[C@H]3[C@@H](F)[C@H](n4cnc5c(N)ncnc54)O[C@@H]3COP(=O)(O)O[C@H]2[C@H]1F [3'3'-(2'F-A)(2'F-A), reference compound] , what is it?
12.6 °C

###

experimentalSystem: hSTING(REF) (Homo sapiens, UniProt Q86WV6)
Sequence (Q86WV6 140-379): as the sequence (Q86WV6 140-379 H232R) above, with R93H counted along it
testSummary: Differential scanning fluorometry (DSF) binding to purified hSTING REF allele
Parameters: DNA encoding amino acids 140-379 (amino acid numbering corresponding to Swiss Prot Q86WV6); 6xHIS (N, cleaved yes); SUMO (N, cleaved yes); made in house; host or cells: Rosetta2 (DE3) E. coli
protocolConditions: DSF, 1 mg/ml STING AA140-379, ligand 1 mM
experimentalReadout: hSTING Tm Shift REF (°C)
The reply should be a number in °C, with the unit left off.

Entry O=C(Nc1ncnc2c1ncn2[C@@H]1O[C@@H]2CO[P@@](=O)(S)O[C@H]3[C@@H](F)[C@H](n4cnc5c(NC(=O)c6ccccc6)ncnc54)O[C@@H]3CO[P@@](=O)(S)O[C@H]2[C@H]1F)c1ccccc1 has what hSTING Tm Shift REF?
8.7

And then Nc1nc2c(ncn2[C@@H]2O[C@@H]3COP(=O)(O)O[C@H]4[C@@H](F)[C@H](n5cnc6c(N)ncnc65)O[C@@H]4COP(=O)(O)O[C@H]3[C@H]2F)c(=O)[nH]1 , what is it?
7.8

And then Nc1nc2c(ncn2[C@@H]2O[C@@H]3CO[P@@](=O)(S)O[C@H]4[C@@H](F)[C@H](n5cnc6c(=O)[nH]c(N)nc65)O[C@@H]4CO[P@@](=O)(S)O[C@H]3[C@H]2F)c(=O)[nH]1 , what is it?
11.4

And then Nc1nc2c(ncn2[C@@H]2O[C@@H]3CO[P@@](=O)(S)O[C@H]4[C@@H](F)[C@H](n5cnc6c(N)ncnc65)O[C@@H]4CO[P@@](=O)(S)O[C@H]3[C@H]2O)c(=O)[nH]1 , what is it?
9.7

And then Nc1ncnc2c1ncn2[C@@H]1O[C@@H]2CO[P@@](=O)(S)O[C@H]3[C@H](F)[C@H](n4cnc5c(N)ncnc54)O[C@@H]3CO[P@@](=O)(S)O[C@H]2[C@@H]1F , what is it?
0.3

###

experimentalSystem: hSTING(REF) (Homo sapiens, UniProt Q86WV6)
testSummary: Differential scanning fluorometry (DSF) binding to purified hSTING REF allele
Set-up: DNA encoding amino acids 140-379 (amino acid numbering corresponding to Swiss Prot Q86WV6); 6xHIS (N, cleaved yes); SUMO (N, cleaved yes); made in house; host or cells: Rosetta2 (DE3) E. coli
protocolConditions: Table 4 comment, REF allele hSTING
experimentalReadout: binding relative to OH reference compound, in words

# molecule, value
measured = [
    ("Nc1ncnc2c1ncn2[C@@H]1O[C@@H]2CO[P@@](=O)(S)O[C@H]3[C@@H](F)[C@H](n4cnc5c(N)ncnc54)O[C@@H]3CO[P@@](=O)(S)O[C@H]2[C@H]1F [Compound 6]", "improved binding"),
    ("CC(C)C(=O)Nc1nc2c(ncn2[C@@H]2O[C@@H]3CO[P@@](=O)(S)O[C@H]4[C@@H](F)[C@H](n5cnc6c(N)ncnc65)O[C@@H]4CO[P@@](=O)(S)O[C@H]3[C@H]2F)c(=O)[nH]1 [Compound 26]", "improved binding"),
    ("Nc1nc2c(ncn2[C@@H]2O[C@@H]3CO[P@@](=O)(S)O[C@H]4[C@@H](F)[C@H](n5cnc6c(N)ncnc65)O[C@@H]4CO[P@@](=O)(S)O[C@H]3[C@H]2O)c(=O)[nH]1 [Compound 24]", "improved binding"),
]
